- ASSAY TEXT: Ratio of AUC (0 to 1.5 hrs) in C57BL/6J mouse liver to plasma in C57BL/6J mouse at 5 mg/kg, po administered as single dose by LC/MS/MS analysis
- Type: ADME, organism-based
- CONDITION: liver and plasma, read-out: Ratio AUC

>  <MOLECULE>
CS(=O)(=O)c1ccc([C@@H](C[C@H]2CCC(=O)C2)C(=O)Nc2cnccn2)cc1Cl [PIRAGLIATIN]

>  <Kp>
4.2

$$$$

----------
- ASSAY TEXT: Volume of distribution at steady state in ICR mouse at 2 mg/kg, iv administered as single dose by LC/MS/MS analysis
- Type: ADME, organism-based
- CONDITION: in vivo, read-out: Vdss

>  <GIVEN SMILES>
CCN(CC(=O)O)CC(=O)N1CCC[C@H]1c1cc(C(=O)Nc2ncc(F)s2)c(C)s1

>  <Vd>
0.31 L/kg

$$$$
